Sourced from patent US20100210649A1

system: H2030; test: Non Small Cell Lung Cancer proliferation assay (Alamar Blue reduction), H2030; type: cell-based, human; settings: Homo sapiens, NCI-H2030; primary screening; 10 μM compound in 1% DMSO (v/v); read-out: percentage inhibition H2030
attribute_measured: inhibition at 10 µM (%)
Your answer is read as %, so omit the unit and give the number.

INSERT INTO measurements (compound_structure, tested_on, reported) VALUES
  ('O=c1c(Sc2ccc(Cl)cc2)cc(Cl)nn1-c1ccccc1', 'H2030', -8);

Below: the item to evaluate.
Exam item: Need inhibition at 10 µM of COc1cnn(-c2cccc(C)c2)c(=O)c1Cl , thanks.
Marked response: 2
